Reported growth inhibition is given for each of the following compounds.
# Procedure text: NCI Yeast Anticancer Drug Screen. Data for the mgt1 strain (AID 153)
# Conditions: S. cerevisiae mgt1 mutant growth inhibition; at 100.0 µM; stronger effect = higher value
The panel holds about 79,000 compounds, 15% with a hit somewhere; the sample as a whole holds those more often.
Endpoint label: growth inhibition (%)

compound=Cc1ccc(-c2ccc(Nc3c4ccccc4nc4ccccc34)cc2)cn1 endpoint_label="growth inhibition" unit_spec=% reported_measurement=95
compound="CC1(C)C(=O)OC(n2cc(F)c(=O)[nH]c2=O)C1=O (centres undefined)" endpoint_label="growth inhibition" unit_spec=% reported_measurement=67
compound=CC(C)c1cc(C(C)C)c(O)c(C([O-])[O-])c1.CC(C)c1cc(C(C)C)c(O)c(C([O-])[O-])c1.CC(C)c1cc(C(C)C)c(O)c(C([OH2+])[OH2+])c1.CC(C)c1cc(C(C)C)c(O)c(C([OH2+])[OH2+])c1.[Cu+2].[Cu+2].[OH3+].[OH3+] endpoint_label="growth inhibition" unit_spec=% reported_measurement=91
compound="COc1cc(C2c3cc4c(cc3OC(Nc3ccccc3)C2C)OCO4)cc(OC)c1O (centres undefined)" endpoint_label="growth inhibition" unit_spec=% reported_measurement=38
compound=CC(C)/C(Cl)=N\OC(=O)Nc1cccc(Cl)c1 endpoint_label="growth inhibition" unit_spec=% reported_measurement=0
compound=COc1ccccc1N=NC(C(=O)c1ccccc1)C(=O)c1ccccc1 endpoint_label="growth inhibition" unit_spec=% reported_measurement=98
compound=O=C1c2ccccc2-c2nc3ccccc3nc21 endpoint_label="growth inhibition" unit_spec=% reported_measurement=61
compound=C=C(CN(C)C)C(=O)c1cc(C)ccc1C endpoint_label="growth inhibition" unit_spec=% reported_measurement=99
compound=O=C(NNc1ccnc2cc(Cl)ccc12)/C(=C\c1ccccc1Cl)NC(=O)c1ccccc1 endpoint_label="growth inhibition" unit_spec=% reported_measurement=62

====

# Procedure text: NCI Yeast Anticancer Drug Screen. Data for the rad52 strain (AID 147);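 note: 0% = growth of vehicle-treated control cultures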
# Conditions: S. cerevisiae rad52 mutant growth inhibition; at 11.0 µM; stronger effect = higher value
This is part of a sample that, as a whole, favours compounds with a hit. Of some 79,000 tested, about 15% had one in any assay.
Threshold rule: growth inhibition greater than or equal to 10% is yes; below that, no.

compound=CNC(=O)OCc1c(COC(=O)NC)c(-c2ccc(Cl)c(Cl)c2)n2c1CCC2 class_assignment=no
compound=Cc1nc(-c2ccccc2)c(-c2ccccc2)s1 class_assignment=yes
compound="C=CCC1=C(C)C(OC(=O)/C=C/c2ccccc2)CC1=O (configuration not stated)" class_assignment=no
compound=BrCc1cccc2ccc3cccc(CBr)c3c12 class_assignment=no
compound=O=C1C=CC(=Nc2ccc3c(c2)Cc2cc(NC(=O)C(F)(F)F)ccc2-3)O1 class_assignment=yes
compound="N#CC(C(=O)Nc1ccccc1)C1=C(Cl)C(=O)c2ccccc2C1=O (configuration not stated)" class_assignment=yes
compound=O=C1c2ccccc2-c2n[nH]c3cccc1c23 class_assignment=yes
compound=CCC(=O)Oc1c(Cl)cc(Cl)c2ccccc12 class_assignment=no
compound="O=C(O)C1OC1(c1cccc(Cl)c1)c1ccccc1Cl (configuration not stated)" class_assignment=yes
compound="OC(COc1cccc2ccccc12)CN1CCOCC1 (configuration not stated)" class_assignment=yes
compound=CC(C)[N+]([O-])(CCCNc1c2ccccc2nc2cccc([N+](=O)[O-])c12)C(C)C class_assignment=yes
compound=O=C1C=CC(=C(c2ccccc2)c2ccccc2)c2ccccc21 class_assignment=no

Origin of values: PubChem BioAssay (NCI)
